Cited source for all entries: patent US20210403485A1

TARGET OR SYSTEM: BaF3 ETV6-NTRK3-WT (Homo sapiens, UniProt Q16288)
Construct: fused on or other part: N-terminal part of ETV6 (TEL) as fusion partner (part of the key); P41212 (Transcription factor ETV6)
Sequence (Q16288 whole entry, change not shown, the tested form may be a part): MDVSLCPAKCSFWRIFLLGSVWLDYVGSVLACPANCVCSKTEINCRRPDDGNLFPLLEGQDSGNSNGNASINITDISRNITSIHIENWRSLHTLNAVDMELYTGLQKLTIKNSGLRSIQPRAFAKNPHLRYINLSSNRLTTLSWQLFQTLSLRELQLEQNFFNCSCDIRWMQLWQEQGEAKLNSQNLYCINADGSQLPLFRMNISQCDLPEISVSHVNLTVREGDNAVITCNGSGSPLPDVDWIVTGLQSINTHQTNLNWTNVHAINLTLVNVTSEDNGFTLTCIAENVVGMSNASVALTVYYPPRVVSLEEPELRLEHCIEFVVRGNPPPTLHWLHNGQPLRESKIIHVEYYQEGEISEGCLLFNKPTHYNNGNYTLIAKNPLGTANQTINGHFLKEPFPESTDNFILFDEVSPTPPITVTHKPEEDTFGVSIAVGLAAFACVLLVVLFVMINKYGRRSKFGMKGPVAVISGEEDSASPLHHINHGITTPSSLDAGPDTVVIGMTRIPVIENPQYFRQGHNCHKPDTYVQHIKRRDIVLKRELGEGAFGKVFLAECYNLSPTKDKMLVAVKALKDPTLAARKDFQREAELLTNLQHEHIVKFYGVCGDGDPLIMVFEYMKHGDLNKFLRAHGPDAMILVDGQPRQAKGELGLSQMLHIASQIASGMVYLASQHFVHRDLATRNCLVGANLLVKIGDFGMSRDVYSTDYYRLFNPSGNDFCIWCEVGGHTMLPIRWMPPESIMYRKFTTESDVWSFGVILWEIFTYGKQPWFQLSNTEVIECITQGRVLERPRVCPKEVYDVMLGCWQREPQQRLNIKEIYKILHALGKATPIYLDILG
PROTOCOL SUMMARY: Inhibitory activity against cell proliferation (CellTiter-Glo, 72 hours)
Type: cell-based
STUDY CONDITIONS: read-out: Half maximal inhibitory concentration IC50 of cells, BaF3 ETV6-NTRK3-WT
RECORDED ENDPOINT: GI50 (nM)

Some solved entries appear below for comparison.
- C[C@@H]1CCc2ncc(F)cc2[C@H]2CCCN2c2ccn3ncc(c3n2)C(=O)N1 [LOXO-195, reference compound]: 2.6
- C[C@@H]1COc2ncc(F)cc2[C@H]2COC[C@@H](C)N2c2ccn3ncc(c3n2)C(=O)N1 [WX006]: 3.2
- O=C1N[C@@H]2COC[C@@H]2Oc2ncc(F)cc2C2COCCN2c2ccn3ncc1c3n2 (some centres unmarked) [WX005A]: 2.9
- O=C1NC2(CC2)COc2ncc(F)cc2C2COCCN2c2ccn3ncc1c3n2 (single isomer, unassigned) [WX001B]: 2.6

(A) C[C@@H]1COC[C@@H]2c3cc(F)cnc3OCC3(CC3)NC(=O)c3cnn4ccc(nc34)N12 [WX007]
(B) O=C1NC2(CC2)COc2ncc(F)cc2[C@H]2CCOCCN2c2ccn3ncc1c3n2 [WX009A]
(C) C[C@H]1CNC(=O)c2cnn3ccc(nc23)N2CCOC[C@@H]2c2cc(F)cnc2O1 [WX004B]
Put these in order: smallest GI50 first, largest last. Output spec: labels arranged per the requested ranking.
C, B, A

---

PROTOCOL SUMMARY: Pharmacokinetic test of compounds in mice (plasma, LC/MS/MS)
Assay type: in vivo, male CD-1 mice
STUDY CONDITIONS: male, CD-1, mouse, plasma, PO, 10 mg/kg, read-out: Time to peak Tmax
RECORDED ENDPOINT: Tmax (min)

• O=C(Nc1cnn2ccc(N3CCC[C@@H]3c3cc(F)ccc3F)nc12)N1CC[C@H](O)C1 [LOXO-101, larotrectinib, reference compound] = 22.8
• C[C@@H]1CCc2ncc(F)cc2[C@H]2CCCN2c2ccn3ncc(c3n2)C(=O)N1 [LOXO-195, reference compound] = 22.8
• O=C1N[C@@H]2COC[C@@H]2Oc2ncc(F)cc2C2COCCN2c2ccn3ncc1c3n2 (stereo partly drawn) [WX005A] = 22.8

---

TARGET OR SYSTEM: ALK (Homo sapiens)
Construct: purchased Reaction Biology Corp
Sequence (Q9UM73 19-1620): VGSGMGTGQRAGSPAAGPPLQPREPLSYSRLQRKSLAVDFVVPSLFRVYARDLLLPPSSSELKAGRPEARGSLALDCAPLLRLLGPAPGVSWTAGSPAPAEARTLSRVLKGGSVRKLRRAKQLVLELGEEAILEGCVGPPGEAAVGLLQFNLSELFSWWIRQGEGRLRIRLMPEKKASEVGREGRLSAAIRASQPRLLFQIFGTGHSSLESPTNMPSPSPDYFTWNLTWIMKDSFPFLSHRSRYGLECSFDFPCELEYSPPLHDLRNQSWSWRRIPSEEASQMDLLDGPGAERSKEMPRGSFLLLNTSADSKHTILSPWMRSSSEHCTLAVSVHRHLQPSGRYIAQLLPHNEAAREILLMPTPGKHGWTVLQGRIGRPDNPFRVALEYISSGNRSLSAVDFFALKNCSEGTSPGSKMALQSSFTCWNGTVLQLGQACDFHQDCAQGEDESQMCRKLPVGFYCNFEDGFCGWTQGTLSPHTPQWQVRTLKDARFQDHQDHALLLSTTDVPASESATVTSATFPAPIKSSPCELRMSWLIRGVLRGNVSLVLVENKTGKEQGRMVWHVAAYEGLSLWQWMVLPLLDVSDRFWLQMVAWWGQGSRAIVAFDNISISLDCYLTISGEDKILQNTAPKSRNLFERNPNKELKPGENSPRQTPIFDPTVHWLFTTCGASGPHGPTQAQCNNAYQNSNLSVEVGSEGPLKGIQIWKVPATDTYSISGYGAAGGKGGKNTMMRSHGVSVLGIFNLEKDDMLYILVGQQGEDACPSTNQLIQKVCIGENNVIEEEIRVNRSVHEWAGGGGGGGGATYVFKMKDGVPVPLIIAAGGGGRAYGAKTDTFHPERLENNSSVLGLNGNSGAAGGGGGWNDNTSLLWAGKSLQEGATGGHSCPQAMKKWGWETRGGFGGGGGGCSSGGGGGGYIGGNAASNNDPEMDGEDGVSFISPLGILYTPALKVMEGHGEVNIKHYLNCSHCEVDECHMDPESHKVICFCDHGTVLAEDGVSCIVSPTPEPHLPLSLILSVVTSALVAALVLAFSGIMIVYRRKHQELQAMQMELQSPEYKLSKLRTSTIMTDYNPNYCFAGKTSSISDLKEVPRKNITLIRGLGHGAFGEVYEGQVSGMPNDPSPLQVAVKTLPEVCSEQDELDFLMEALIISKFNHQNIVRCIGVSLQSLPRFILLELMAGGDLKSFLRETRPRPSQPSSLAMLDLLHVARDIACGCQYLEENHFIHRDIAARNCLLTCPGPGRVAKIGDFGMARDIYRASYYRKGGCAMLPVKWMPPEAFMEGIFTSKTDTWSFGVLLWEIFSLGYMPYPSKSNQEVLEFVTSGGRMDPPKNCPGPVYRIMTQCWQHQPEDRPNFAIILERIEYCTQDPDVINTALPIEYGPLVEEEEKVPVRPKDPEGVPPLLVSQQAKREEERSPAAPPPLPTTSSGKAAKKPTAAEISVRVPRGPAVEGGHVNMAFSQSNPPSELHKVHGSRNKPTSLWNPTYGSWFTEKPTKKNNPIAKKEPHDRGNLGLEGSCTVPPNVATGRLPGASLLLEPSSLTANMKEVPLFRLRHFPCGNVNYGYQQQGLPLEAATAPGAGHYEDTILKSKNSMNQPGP
PROTOCOL SUMMARY: Kinase inhibitory activity (33P-ATP, filtration-binding method, Reaction Biology Corp.)
Assay type: biochemical
STUDY CONDITIONS: read-out: Half maximal inhibitory concentration IC50 for kinases, ALK
Items are presented alongside their recorded IC50.

Examples with answers:
* O=C(Nc1cnn2ccc(N3CCC[C@@H]3c3cc(F)ccc3F)nc12)N1CC[C@H](O)C1 [LOXO-101, larotrectinib, reference compound] | > 1000 nM
* C[C@@H]1COC[C@@H]2c3cc(F)cnc3O[C@@H](C)CNC(=O)c3cnn4ccc(nc34)N12 | > 1000 nM

Next item in the queue.
// query IC50 value for entry C[C@@H]1COc2ncc(F)cc2[C@H]2COC[C@@H](C)N2c2ccn3ncc(c3n2)C(=O)N1
> 1000 nM
